# Staphylococcus epidermidis KCTC 1917: MIC values follow
Give your result in µM as a bare value.

NCCCC[C@H](NC(=O)CNC(=O)[C@H](Cc1c[nH]c2ccccc12)NC(=O)[C@H](CCCCN)NC(=O)[C@H](CCCCN)NC(=O)CNC(=O)[C@H](Cc1c[nH]c2ccccc12)NC(=O)[C@H](CCCCN)NC(=O)[C@H](CCCCN)NC(=O)CNC(=O)[C@H](Cc1c[nH]c2ccccc12)NC(=O)[C@@H](N)CCCCN)C(N)=O :: 8
CC[C@H](C)[C@H](NC(=O)[C@H](CCCN=C(N)N)NC(=O)[C@H](CCCCN)NC(=O)[C@@H](NC(=O)[C@@H](NC(=O)[C@H](CCCN=C(N)N)NC(=O)[C@@H](N)CCCCN)[C@@H](C)CC)C(C)C)C(=O)N[C@@H](CCCCN)C(=O)N[C@@H](CCCCN)C(=O)N[C@@H](Cc1c[nH]c2ccccc12)C(=O)N[C@@H](CC(C)C)C(=O)N[C@@H](CCCN=C(N)N)C(N)=O :: 1

Next, consider the following molecule.
Let me check: CC(C)C[C@H](NC(=O)[C@H](Cc1c[nH]c2ccccc12)NC(=O)[C@H](CCCNC(=N)N)NC(=O)[C@H](CCCNC(=N)N)NC(=O)[C@H](Cc1c[nH]c2ccccc12)NC(=O)[C@H](CCCNC(=N)N)NC(=O)[C@H](CCCNC(=N)N)NC(=O)[C@H](Cc1c[nH]c2ccccc12)NC(=O)[C@H](CC(C)C)NC(=O)[C@@H](N)CCCNC(=N)N)C(=O)N[C@@H](CCCNC(=N)N)C(=O)O , system Staphylococcus epidermidis KCTC 1917, measured MIC is 2

----------
System: Escherichia coli K88
protocolDescription: ≥ marks a high value that may be exact or a test limit, other limits are often not marked, values filed in µg/mL are converted to µM
quantityMeasured: MIC (µM)
Give a bare numeral; the unit µM is implied.

Completed entries (count: 3):
CC[C@H](C)[C@H](NC(=O)[C@H](CCCN=C(N)N)NC(=O)[C@H](C)NC(=O)[C@H](C)N)C(=O)N[C@H](C(=O)N[C@@H](CC(C)C)C(=O)N[C@@H](CCCN=C(N)N)C(=O)N[C@@H](Cc1c[nH]c2ccccc12)C(=O)N[C@@H](CCCN=C(N)N)C(=O)N[C@@H](Cc1ccccc1)C(=O)N[C@@H](CCCN=C(N)N)C(N)=O)[C@@H](C)CC :: 2
CC[C@H](C)[C@H](NC(=O)[C@H](CCCN=C(N)N)NC(=O)[C@H](C)NC(=O)[C@H](C)N)C(=O)N[C@H](C(=O)N[C@@H](CC(C)C)C(=O)N[C@@H](CCCN=C(N)N)C(=O)N[C@H](C(=O)N[C@@H](CCCN=C(N)N)C(=O)N[C@@H](Cc1ccccc1)C(=O)N[C@@H](CCCN=C(N)N)C(N)=O)[C@@H](C)O)[C@@H](C)CC :: 4
CC(C)C[C@H](NC(=O)[C@@H]1CCCN1C(=O)[C@H](CCCN=C(N)N)NC(=O)[C@H](CC(C)C)NC(=O)[C@H](CC(C)C)NC(=O)[C@@H]1CCCN1C(=O)[C@H](CCCN=C(N)N)NC(=O)[C@H](CC(C)C)NC(=O)[C@H](CC(C)C)NC(=O)[C@@H]1CCCN1C(=O)[C@H](CCCN=C(N)N)NC(=O)[C@H](CC(C)C)NC(=O)[C@H](CC(C)C)NC(=O)[C@@H]1CCCN1C(=O)[C@H](CCCN=C(N)N)NC(=O)[C@@H](N)CC(C)C)C(N)=O :: 8

# ---- query molecule ----
Reported Escherichia coli K88 MIC for item CC(C)C[C@H](NC(=O)[C@@H]1CCCN1C(=O)[C@H](CCCCN)NC(=O)[C@H](CC(C)C)NC(=O)[C@H](CC(C)C)NC(=O)[C@@H]1CCCN1C(=O)[C@H](CCCCN)NC(=O)[C@H](CC(C)C)NC(=O)[C@H](CC(C)C)NC(=O)[C@@H]1CCCN1C(=O)[C@H](CCCCN)NC(=O)[C@H](CC(C)C)NC(=O)[C@H](CC(C)C)NC(=O)[C@@H]1CCCN1C(=O)[C@H](CCCCN)NC(=O)[C@@H](N)CC(C)C)C(N)=O was 16
